- System: C5a stimulated neutrophile
- procedure_summary: Action on increase of intracellular Ca2+ concentration of C5a stimulated neutrophile
- Assay type: cell-based, human
- conditions_used: human peripheral blood neutrophile, recombinant human C5a 100 pmol/L, Fura 2-AM; read-out: IC50 value, inhibition of increase in intracellular Ca2+ concentration of C5a-stimulated neutrophile
observation_type: IC50 (nM)
Only the number, expressed in nM, is required.

Give its IC50 value. Item: "CC(C)c1ccc(N(Cc2ccc(N(C)C)cc2)C(=O)Nc2c(C(C)C)cccc2C(C)C)cc1"
5

meta.source: patent US7105567B2
